assay-system: IFN-gamma (UniProt P01579 P01579:24-166)
Sequence (P01579 24-166, one chain of several): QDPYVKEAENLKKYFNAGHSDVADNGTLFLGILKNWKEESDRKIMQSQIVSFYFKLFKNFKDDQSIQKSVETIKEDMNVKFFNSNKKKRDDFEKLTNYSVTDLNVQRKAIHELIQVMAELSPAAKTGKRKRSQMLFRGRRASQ
protocol: SPR; 150 nM IFN-gamma, 930 s
particulars: tags: PeproTech; chain copies: 2
This section presents binders with their documented binding signal values.
measured-property: binding signal (bound ratio)

binder="IF04A-57 (ssDNA) DNA: ATCAGTCCACTAATCAGGAAGAAGATAGGGTTTGTCTTATGTTGCCACGCTGGGAG" reported_result=0.08
binder="IF11A-57 (ssDNA) DNA: ATCAGTCCACCTATGTGGGTTGGATGGGGTGTATGTTAGTAGGGCTAAGGAGGTGG" reported_result=0.46
binder="IF07aA-57 (ssDNA) DNA: ATCAGTCCACTCCTTCTGTCATAGGGCAGGCGCATTTGGTGTAGAGTTTATCTTGG" reported_result=0.19
binder="IF07bA-57 (ssDNA) DNA: ATCAGTCCACTCGGGTCGTTTAATAATGTAGGTATGGGCTAGGCAGCTAGTGGATG" reported_result=0.05
